IC50, inhibition of NA activity listing for selected binders.
measured_target: NA (neuraminidase) used in the NA activity inhibition experiments of Example 9
protocol_notes: cell-based or functional assay
measured_quantity: IC50, inhibition of NA activity (µg/mL)

- binder: "plant-produced humanized 2B9 antibody G5K4 (antibody, V domains shown) VH: QVQLVQSGSELKKPGASVKVSCKAAGYTFTNYWIGWVRQAPGQGLEWIGDIYPENDFSNYNEKFKDRVTITADTSTSTAYMELSSLRSEDTAVYYCVRANEGWYLDVWGQGTTVTVSS VL: DIQMTQSPSSLSASVGDRVTITCRASENIYSYLAWYQQKPGKAPKLLVYFAKTLAEGVPSRFSGSGSGTEFTLTISSLQPDDFATYYCQHHYGTPYTFGQGTKLEIKR"
  numeric_value: 0.21
- binder: "plant-produced humanized 2B9 antibody G2K4 (antibody, V domains shown) VH: QVQLVQSGSELKKPGASVKMSCKAAGYTFTNYWIGWVRQAPGQGLEWIGDIYPENDFSNYNEKFKDRATLTADTSTRTAYMELSSLRSEDTAVYYCVRANEGWYLDVWGQGTTVTVSS VL: DIQMTQSPSSLSASVGDRVTITCRASENIYSYLAWYQQKPGKAPKLLVYFAKTLAEGVPSRFSGSGSGTEFTLTISSLQPDDFATYYCQHHYGTPYTFGQGTKLEIKR"
  numeric_value: 1.16
- binder: "plant-produced humanized 2B9 antibody G2K3 (antibody, V domains shown) VH: QVQLVQSGSELKKPGASVKMSCKAAGYTFTNYWIGWVRQAPGQGLEWIGDIYPENDFSNYNEKFKDRATLTADTSTRTAYMELSSLRSEDTAVYYCVRANEGWYLDVWGQGTTVTVSS VL: DIQMTQSPSSLSASVGDRVTITCRASENIYSYLAWYQQKPGKAPKLLVYFAKTLAEGVPSRFSGSGSGTEFTLTISSLQPDDFANYYCQHHYGTPYTFGQGTKLEIKR"
  numeric_value: 0.5

Measured values drawn from patent US8734803 for this set.
